Measured IC50 accompanies every entry in the list below.
biological target: UniProtKB Q9H0H5; assay: MgcRacGAP GTPase-activating activity inhibitors, confirmation, biochemical, ADP Hunter fluorescence, primary and confirmatory (AID 624330); assay type: functional
Sequence (Q9H0H5 whole entry): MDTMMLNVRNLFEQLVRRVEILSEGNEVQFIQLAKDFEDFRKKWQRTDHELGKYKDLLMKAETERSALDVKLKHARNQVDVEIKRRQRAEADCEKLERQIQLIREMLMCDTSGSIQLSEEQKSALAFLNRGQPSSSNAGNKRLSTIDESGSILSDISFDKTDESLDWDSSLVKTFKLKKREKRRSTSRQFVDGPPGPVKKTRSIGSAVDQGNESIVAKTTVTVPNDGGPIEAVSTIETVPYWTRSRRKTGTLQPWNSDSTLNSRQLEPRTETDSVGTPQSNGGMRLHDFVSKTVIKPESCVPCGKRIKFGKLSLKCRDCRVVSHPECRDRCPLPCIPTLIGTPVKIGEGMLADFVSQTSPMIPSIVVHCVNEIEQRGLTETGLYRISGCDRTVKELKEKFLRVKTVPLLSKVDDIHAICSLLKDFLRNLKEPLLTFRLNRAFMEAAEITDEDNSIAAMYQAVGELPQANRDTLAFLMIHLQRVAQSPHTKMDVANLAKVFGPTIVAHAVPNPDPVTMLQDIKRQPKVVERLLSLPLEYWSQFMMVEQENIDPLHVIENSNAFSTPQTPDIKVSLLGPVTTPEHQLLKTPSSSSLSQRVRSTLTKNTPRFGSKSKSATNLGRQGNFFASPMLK
The source made the active and inactive calls. No rule for the calls is given here.
Value type: IC50

- CCOC(=O)C(Cc1ccccc1)C(=O)Nc1ccc(N(CC)CC)cc1 (centres undefined): 93.1 µM (active)
- O=P1(c2ccccc2)Nc2ccccc2N1c1ccccc1 (centres undefined): 28.8 µM (active)
- CCOC(=O)C1CCN(Cc2ccc(-c3ccccc3)cc2)CC1: 151 µM (active)
- CCN1CCN(CCOc2ccc(Br)cc2C)CC1: 73.2 µM (active)
